The measured values listed here are drawn from patent US11691969B2.

# TEST SYSTEM: PARP7 (Homo sapiens (Human), UniProt Q7Z3E1)
# Sequence (Q7Z3E1 whole entry): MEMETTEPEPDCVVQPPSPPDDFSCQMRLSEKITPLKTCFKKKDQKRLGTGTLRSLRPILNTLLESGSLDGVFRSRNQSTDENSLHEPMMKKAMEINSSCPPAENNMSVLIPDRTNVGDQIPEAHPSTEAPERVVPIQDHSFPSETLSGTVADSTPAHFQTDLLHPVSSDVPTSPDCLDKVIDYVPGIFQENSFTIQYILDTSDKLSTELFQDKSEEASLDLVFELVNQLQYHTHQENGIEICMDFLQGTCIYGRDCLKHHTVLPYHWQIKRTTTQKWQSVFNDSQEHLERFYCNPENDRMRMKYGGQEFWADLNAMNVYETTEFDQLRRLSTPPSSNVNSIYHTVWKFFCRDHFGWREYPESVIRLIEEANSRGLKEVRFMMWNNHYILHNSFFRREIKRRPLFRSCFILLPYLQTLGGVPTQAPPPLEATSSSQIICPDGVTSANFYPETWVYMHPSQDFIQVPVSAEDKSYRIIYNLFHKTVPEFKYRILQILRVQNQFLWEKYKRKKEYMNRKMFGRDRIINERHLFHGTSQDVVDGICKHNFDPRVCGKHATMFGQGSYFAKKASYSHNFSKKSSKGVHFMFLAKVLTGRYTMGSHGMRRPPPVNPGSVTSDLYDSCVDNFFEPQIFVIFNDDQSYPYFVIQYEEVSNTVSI
# PROTOCOL NOTES: TR-FRET assay: displacement of biotinylated Probe A from the TIPARP active site (Enzymatic Assay for Inhibition of PARP7)
# CONDITION NOTES: TIPARP 6 nM, Probe A 2 nM, 25° C.
QUANTITY NAME: IC50

MOLECULE: C[C@@H](CO[C@@H]1CCN(C2CCN(c3ncc(F)cn3)CC2)C1=O)Nc1cn[nH]c(=O)c1C(F)(F)F
TEST SYSTEM: PARP7 (Homo sapiens (Human), UniProt Q7Z3E1)
IC50: < 100 nM

MOLECULE: N#Cc1ccc(N2CCC(N3CC[C@H](OCCNc4cn[nH]c(=O)c4C(F)(F)F)C3=O)CC2)nc1 [Example 36B]
TEST SYSTEM: PARP7 (Homo sapiens (Human), UniProt Q7Z3E1)
IC50: < 100 nM

MOLECULE: CCN(C(=O)COC[C@H](C)Nc1cn[nH]c(=O)c1C(F)(F)F)C1CCN(c2ncc(C(F)(F)F)cn2)CC1
TEST SYSTEM: PARP7 (Homo sapiens (Human), UniProt Q7Z3E1)
IC50: < 100 nM

MOLECULE: COC[C@@H](CO[C@H]1CCN(C2CCN(c3ncc(C(F)(F)F)cn3)CC2)C1=O)Oc1cn[nH]c(=O)c1Br [Example 56A]
TEST SYSTEM: PARP7 (Homo sapiens (Human), UniProt Q7Z3E1)
IC50: ≥ 1000 nM

MOLECULE: C[C@@H](CO[C@@H]1C(=O)N(C2CCN(c3ncc(C(F)(F)F)cn3)CC2)CC1(C)C)Nc1cn[nH]c(=O)c1C(F)(F)F [Example 35A]
TEST SYSTEM: PARP7 (Homo sapiens (Human), UniProt Q7Z3E1)
IC50: ≥ 1000 nM

**Q:** Tell us which IC50 value is on record for C[C@@H]1CN(C2CCN(c3ncc(C(F)(F)F)cn3)CC2)C(=O)[C@H]1OC[C@H](C)Nc1cn[nH]c(=O)c1C(F)(F)F [Example 37A]
**A:** ≥ 1000 nM

**Q:** Identify the reported IC50 for the following entry. C[C@H](Nc1cn[nH]c(=O)c1C(F)(F)F)C(=O)N[C@@H]1CCN(C2CCN(c3ncc(C(F)(F)F)cn3)CC2)C1=O
**A:** < 100 nM

###

Listed next: entries and their corresponding pIC50.
# TEST SYSTEM: PARP7 (Homo sapiens (Human), UniProt Q7Z3E1)
# PROTOCOL NOTES: TR-FRET assay: displacement of biotinylated Probe A from the TIPARP active site (Enzymatic Assay for Inhibition of PARP7)
# CONDITION NOTES: TIPARP 6 nM, Probe A 2 nM, 25° C.
pIC50: −log10 of the molar value.

**Q:** Tell me its pIC50 given N#Cc1ccc(N2CCC(N3CC[C@@H](OCCNc4cn[nH]c(=O)c4C(F)(F)F)C3=O)CC2)nc1 [Example 36A] as the entry.
**A:** > 7.00

**Q:** // fetch pIC50 given entry C[C@@H](CO[C@H]1CCN(C2CCN(c3cnc(C(F)F)cn3)CC2)C1=O)Nc1cn[nH]c(=O)c1C(F)(F)F [Example 22A]
**A:** 6.00 to 7.00

**Q:** Look up and state reported pIC50 for C[C@@H](CO[C@@H]1CCN([C@@H]2CCN(c3ncc(C(F)(F)F)cn3)C[C@H]2O)C1=O)Nc1cn[nH]c(=O)c1C(F)(F)F [Example 57]
**A:** > 7.00

**Q:** Query pIC50 for C[C@@H](CO[C@@H]1CCN(C2CCN(c3ncc(C(F)(F)F)cn3)CC2)C1=O)Nc1cn[nH]c(=O)c1C(F)(F)F [Example 10B]
**A:** > 7.00

**Q:** Respond only with pIC50 recorded for C[C@@H](COC1CCN(C2CCN(c3ccc(C#N)cn3)CC2)C1=O)Oc1cn[nH]c(=O)c1C(F)(F)F (stereo partly shown) [Example 30]
**A:** > 7.00
